- Species: Rattus norvegicus
- Measurement protocol: Open TG-GATES - Regimen: Daily Repeat
- Assay type: toxicity, organism-based, Sprague-Dawley
- Design: regimen Daily Repeat, gender Male, age 6 weeks
- Stated conditions: in vivo, po, 0 mg/kg, […], tissue Blood, route gavage, dose level Control, time 7 day
Exercise: for every item that follows, state its recorded Ht.
Could you give me the number in %? Just the number is fine.

Exam item: Fill blank: measured Ht of the molecule `Cn1cnc([N+](=O)[O-])c1Sc1ncnc2nc[nH]c12` is ____.
Marked response: 39.8

Exam item: I am curious: what Ht value has been reported for COc1ccc(O)c(C(C)(C)C)c1.COc1ccc(O)cc1C(C)(C)C [BUTYLATED HYDROXYANISOLE] ?
Marked response: 38.9

Exam item: Which Ht is reported for this molecule? COc1ccc(Cl)cc1C(=O)NCCc1ccc(S(=O)(=O)NC(=O)NC2CCCCC2)cc1 [GLYBURIDE]
Marked response: 40.6

Exam item: Recorded Ht for O=P1(N(CCCl)CCCl)NCCCO1 (centres undefined) [CYCLOPHOSPHAMIDE ANHYDROUS] , please?
Marked response: 39.7

Exam item: Entry `Cc1cccc(Nc2cc(Cl)nc(SCC(=O)O)n2)c1C` has what Ht?
Marked response: 40.4

Exam item: Tell me the measured Ht of `C=CCO` , please.
Marked response: 38.8

Exam item: Can you look up the measured Ht of `O=C1NC(=O)C(c2ccccc2)(c2ccccc2)N1` for me?
Marked response: 39.2

Exam item: Can you look up the measured Ht of CS(=O)(=O)Nc1ccc([N+](=O)[O-])cc1Oc1ccccc1 [NIMESULIDE] for me?
Marked response: 41.6

Exam item: Any idea what Ht was measured for `Cn1c(=O)c2c(ncn2C)n(C)c1=O` ?
Marked response: 40.7

====

- Organism: Rattus norvegicus
- Measurement protocol: Open TG-GATES - Regimen: Daily Repeat
- Assay type: toxicity, organism-based, Sprague-Dawley
- Design: regimen Daily Repeat, gender Male, age 6 weeks
- Stated conditions: in vivo, po, 0 mg/kg, 72 h, tissue Plasma, route gavage, dose level Control, time 3 day
Quantity name: K (meq/L)
Write the value in meq/L as a bare number.

Exam item: If you can, please state the reported K value of `Cn1cnc([N+](=O)[O-])c1Sc1ncnc2nc[nH]c12` .
Marked response: 3.9

Exam item: Need K, item `Cn1c(=O)c2c(ncn2C)n(C)c1=O`
Marked response: 4.1

Exam item: // lookup K for COc1ccc(Cl)cc1C(=O)NCCc1ccc(S(=O)(=O)NC(=O)NC2CCCCC2)cc1 [GLYBURIDE]
Marked response: 4.2

Exam item: Fill blank: measured K of the compound O=P1(N(CCCl)CCCl)NCCCO1 (stereo unspecified) [CYCLOPHOSPHAMIDE ANHYDROUS] is ____.
Marked response: 3.9

Exam item: Request the reported K associated with `O=C1NC(=O)C(c2ccccc2)(c2ccccc2)N1`
Marked response: 4.1

Exam item: K for `Cc1cccc(Nc2cc(Cl)nc(SCC(=O)O)n2)c1C` ?
Marked response: 3.8

Exam item: Param item = `Cc1cnc(NC(=O)C2=C(O)c3ccccc3S(=O)(=O)N2C)s1` ; retrieve measured K.
Marked response: 4.1

Exam item: If you can, please state the reported K value of COc1ccc(O)c(C(C)(C)C)c1.COc1ccc(O)cc1C(C)(C)C [BUTYLATED HYDROXYANISOLE] .
Marked response: 4

Exam item: Looking for the measured K of `C=CCO` , can you help?
Marked response: 4

Exam item: // lookup K for CS(=O)(=O)Nc1ccc([N+](=O)[O-])cc1Oc1ccccc1 [NIMESULIDE]
Marked response: 4.7

Exam item: # K lookup, item `O=C1CN(/N=C/c2ccc(-c3ccc([N+](=O)[O-])cc3)o2)C(O)=N1`
Marked response: 4.7
